B1: VH:VL chains; a variant is named by its letters at X, in order (parent)
chain 1: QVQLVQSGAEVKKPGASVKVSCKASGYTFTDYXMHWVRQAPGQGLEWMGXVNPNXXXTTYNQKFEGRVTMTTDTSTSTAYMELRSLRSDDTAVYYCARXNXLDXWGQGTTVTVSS
chain 2: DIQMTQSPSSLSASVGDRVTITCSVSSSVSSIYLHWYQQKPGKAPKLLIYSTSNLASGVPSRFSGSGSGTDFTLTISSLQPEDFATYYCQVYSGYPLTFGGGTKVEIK

Variants of: B1
Test: yeast display scFab, FACS + sequencing
Readout label: non-specific binding call

Answered examples (4):
DTGEADAS
no binding
YRRRGVAD
binds
VKEKGSLF
binds
VEEEGSWV
no binding

Quick request: non-specific binding call for each listed item, please.
1. DRAGDDWA
2. YAATADSS
3. AARADDGV
4. YARADSGD

Result:
no binding
no binding
no binding
no binding

Entry SGRGNALD — recorded non-specific binding call = no binding
